# conditionDetails: 293.9 K; 101.33 kPa; Liquid; Vibrating tube method
measuredEndpoint: mass density (kg/m3)

Recorded mass density (compound CC(C)C(=O)[O-].C[NH2+]CCO [2-hydroxy-N-methylethanaminium isobutyrate] ): 1046.06

For record C[NH2+]CCO.O=C[O-] [2-hydroxy-N-methylethanaminium formate] the listed mass density is 1130.62

Data point: CCCCC(=O)[O-].C[NH2+]CCO [2-hydroxy-N-methylethanaminium pentanoate] ; mass density = 1019.1

Memo: CC(=O)[O-].C[NH2+]CCO [N-methyl-2-hydroxyethylammonium acetate] , reported mass density: 1103.32

CCC(=O)[O-].C[NH2+]CCO [2-hydroxy-N-methylethanaminium propionate] yielded mass density of 1074.01

Query CCCC(=O)[O-].C[NH2+]CCO [N-methyl-2-hydroxyethylammonium butanoate] yields mass density of 1042.13

Cited source: the NIST ThermoML archive (doi:10.1021/je900550v)
